- Test system: MDA-MB-468 breast
- MEASUREMENT PROTOCOL: NCI-60 one-dose screen, 48 h
- STUDY CONDITIONS: 10 µM unless noted
About 83,000 compounds went through this panel and 20% of them were active in at least one assay; those are over-represented in the sample as a whole. Calls of active or inactive are those of the source. Rule for the calls: active = growth percent below 10; inactive = the rest.
Result category, one only: TRUE (active), FALSE (inactive)

Consider the following illustrative entries.
- MOLECULE: "Cc1cccc(NC2=C(Cl)C(=O)c3nc(C)ccc3C2=O)c1"
  CAT: "TRUE"
- MOLECULE: "CCN1C(=S)N(c2ccccc2)C2NC(=O)N(/N=C/C=C/c3ccccc3OC)C21 (stereo unspecified)"
  CAT: "FALSE"
- MOLECULE: "CC/C=C\\C[C@H](O)C/C=C1/C(=O)C=C[C@@H]1C/C=C\\CCCC(=O)NC"
  CAT: "TRUE"

Answer briefly: the call reported for SCc1ccc(CS)cc1 in this assay.
FALSE

Answer briefly: the call reported for O=[N+]([O-])c1ccc(OCCCOc2ccccc2)cc1 in this assay.
FALSE

Answer briefly: the call reported for O=C1OC2C(I)C3CC2C1C3c1ccccc1 (stereo unspecified) in this assay.
FALSE

Answer briefly: the call reported for O=S(=O)(O)c1cccnc1 in this assay.
FALSE

Answer briefly: the call reported for CN(C)c1ncc(/C=C2\SC(=S)N(Cc3ccccc3Cl)C2=O)s1 in this assay.
FALSE
